In this section, each of the compounds is paired with its reported drug sensitivity score.
- Test system: OVCAR8
- assaySummary: drug sensitivity score (DSS2) on cancer cell count; higher = more sensitive; extreme values may be limits of the assay
- conditionParameters: co-cultured fibroblast: WI38; 72 h
testReadout: drug sensitivity score (DSS)

>>> observedvalue("CN(C)Cc1ccc(S(=O)(=O)n2ccc(/C=C/C(=O)NO)c2)cc1")
12.8
>>> observedvalue("O=C(c1ccc(OCCN2CCCCC2)cc1)c1c(-c2ccc(O)cc2)sc2cc(O)ccc12")
0
>>> observedvalue("C[C@@H](Nc1cc(F)cc(F)c1)c1cc(C(=O)N(C)C)cc2c(=O)cc(N3CCOCC3)oc12")
0
>>> observedvalue("CN1CC[C@H](c2c(O)cc(O)c3c(=O)cc(-c4ccccc4Cl)oc23)[C@H](O)C1")
21.6
>>> observedvalue("O=C(O)C1(C(=O)O)CCC1.[NH2-].[NH2-].[Pt+2]")
8.6
>>> observedvalue("CN1CCN(C2CCN(C(=O)Nc3cc(Oc4ccc(NC(=O)C5(C(=O)Nc6ccc(F)cc6)CC5)c(F)c4)ccn3)CC2)CC1")
0
>>> observedvalue("O=C(Nc1cccc(Nc2ncc(Br)c(NCCc3cnc[nH]3)n2)c1)N1CCCC1")
7.8
>>> observedvalue("FC(F)(F)c1ccc(/C=C/c2nc(COc3ccc(CCCCn4ccnn4)cc3)co2)cc1")
0
>>> observedvalue("C=CC(=O)Nc1cccc(Nc2nc(Nc3ccc(N4CCN(C(C)=O)CC4)cc3OC)ncc2C(F)(F)F)c1")
4.1
>>> observedvalue("CCCCc1nc2cc(/C=C/C(=O)NO)ccc2n1CCN(CC)CC")
20.4
>>> observedvalue("CS(=O)(=O)c1ccc(-c2cnc(N)c(C(=O)Nc3ccccc3)n2)cc1")
0
>>> observedvalue("O=C(c1cccc(Cl)c1F)N1CCN(Cc2cccc(Nc3nccs3)n2)CC1")
14.3
>>> observedvalue("O=C(O)C(=O)O.[NH-][C@@H]1CCCC[C@H]1[NH-].[Pt+2]")
19.6
>>> observedvalue("CCC(C)(C)C(=O)O[C@H]1C[C@@H](C)C=C2C=C[C@H](C)[C@H](CC[C@@H]3C[C@@H](O)CC(=O)O3)[C@H]21")
14.6
>>> observedvalue("O[C@H]1CC[C@H](Nc2ncc3nc(Nc4c(F)cc(F)cc4F)n([C@H]4CCOC4)c3n2)CC1")
0
>>> observedvalue("COc1cc2c(cc1-c1c(C)noc1C)ncc1[nH]c(=O)n([C@H](C)c3ccccn3)c12")
4
>>> observedvalue("CN1CC[C@@H](NC(=O)Nc2ccc(C#N)cc2)C[C@@H]1c1nc2ccccc2[nH]1")
0
>>> observedvalue("C=CC(=O)Nc1cccc(Nc2nc(Nc3ccc(OCCOC)cc3)ncc2F)c1")
0
>>> observedvalue("Cc1ccc(=O)n(-c2ccccc2)c1")
0.7
>>> observedvalue("CC(C)(C)c1cc(NC(=O)Nc2ccc(-c3cn4c(n3)sc3cc(OCCN5CCOCC5)ccc34)cc2)no1")
6.2
>>> observedvalue("O=C(CCCCCCC(=O)Nc1ccc([C@H]2O[C@@H](CSc3nc(-c4ccccc4)c(-c4ccccc4)o3)C[C@@H](c3ccc(CO)cc3)O2)cc1)NO")
1.5
>>> observedvalue("O=C(CCNC(=O)c1ccc(OC(F)(F)F)cc1)N[C@@H]1CCCc2ccccc21")
0
>>> observedvalue("S=c1[nH]cnc2nc[nH]c12")
0
>>> observedvalue("CN(C)CCCOc1ccc(-c2ccc3ncc4c(c3c2)n(C2CCOCC2)c(=O)n4C)cn1")
6.8
>>> observedvalue("C[C@@]1(C(=O)Nc2ccc(F)nc2)CCCN1c1nc(Nc2cc(C3CC3)n[nH]2)c2cccn2n1")
13
>>> observedvalue("N#Cc1ccc(C(c2ccc(C#N)cc2)n2cncn2)cc1")
0
>>> observedvalue("CNC(=O)c1nn(C)c2c1C(C)(C)Cc1cnc(Nc3ccc(N4CCN(C)CC4)cc3)nc1-2")
12.3
>>> observedvalue("COc1cc2c(NC3CCN(C(C)C)CC3)nc(C3CCCCC3)nc2cc1OCCCN1CCCC1")
0
>>> observedvalue("CNC(=O)CN1CCC(Oc2cc3c(Nc4cccc(Cl)c4F)ncnc3cc2OC)CC1")
1
>>> observedvalue("CCS(=O)(=O)c1cccc(-c2cc(C(=O)NC3CCN(C)CC3)c(C)c3[nH]c4ncc(C)cc4c23)c1")
8.3
>>> observedvalue("COc1cc2c(NC3CCN(C(C)C)CC3)nc(N3CCC(F)(F)CC3)nc2cc1OCCCN1CCCC1")
0
>>> observedvalue("Cc1c(C(=O)Nc2ccc(N3C[C@@H](C)O[C@@H](C)C3)nc2)cccc1-c1ccc(OC(F)(F)F)cc1")
0
>>> observedvalue("CN(C)CCOc1ccc(/C(=C(/CCCl)c2ccccc2)c2ccccc2)cc1")
0

###

In this section, each of the molecules is paired with its reported drug sensitivity score.
- Tested on: KURAMOCHI
- assaySummary: drug sensitivity score (DSS2) on cancer cell count; higher = more sensitive; extreme values may be limits of the assay
- conditionParameters: co-cultured fibroblast: WI38; 72 h
testReadout: drug sensitivity score (DSS)

>>> observedvalue("Cc1nn(C)c(COc2ccc(N3CCN(S(=O)(=O)N(C)C)CC3)cc2)c1-c1cccc2c(CCCOc3cccc4ccccc34)c(C(=O)O)n(CCN3CCOCC3)c12")
8.5
>>> observedvalue("CC1(C)OCCn2c1nc1c(N3CCOCC3)nc(-c3cnc(N)nc3)nc12")
11.5
>>> observedvalue("CN1C(=O)N[C@H](Cc2c[nH]c3c(Cl)cccc23)C1=O")
0
>>> observedvalue("C[C@@H](C(=O)O)c1ccc(-c2ccccc2)c(F)c1")
0
>>> observedvalue("C[C@@H](Nc1cc(F)cc(F)c1)c1cc(C(=O)N(C)C)cc2c(=O)cc(N3CCOCC3)oc12")
3.8
>>> observedvalue("COc1cc(Br)c(Nc2nc(-c3c(C)nc4ncccn34)cs2)c(Br)c1")
3.6
>>> observedvalue("COc1ccc(C[C@H](NC(=O)[C@H](C)NC(=O)CN2CCOCC2)C(=O)N[C@@H](Cc2ccccc2)C(=O)C2(C)CO2)cc1 (stereo in doubt)")
17.7
>>> observedvalue("COc1cc(OC)c(/C=C/S(=O)(=O)Cc2ccc(OC)c(NCC(=O)O)c2)c(OC)c1")
24.1
>>> observedvalue("COc1cc2c(Oc3ccc(NC(=O)C4(C(=O)Nc5ccc(F)cc5)CC4)cc3F)ccnc2cc1OCCCN1CCOCC1")
4.3
>>> observedvalue("CCN(CC)CCNC(=O)c1c(C)[nH]c(/C=C2\\C(=O)Nc3ccc(-c4csc(-c5ccccc5)n4)cc32)c1C")
3.9
>>> observedvalue("NS(=O)(=O)OC[C@@H]1C[C@@H](n2ccc3c(N[C@H]4CCc5ccccc54)ncnc32)C[C@@H]1O")
19.1
>>> observedvalue("C[C@@H]1C=C2C(=O)O[C@@H]3CC[C@H](C1)[C@]23O")
8.2
>>> observedvalue("COc1cc([C@@H]2c3cc4c(cc3[C@@H](O[C@@H]3O[C@@H]5CO[C@@H](C)O[C@H]5[C@H](O)[C@H]3O)[C@H]3COC(=O)[C@H]23)OCO4)cc(OC)c1O [Etoposide]")
13.8
>>> observedvalue("CS(=O)(=O)CCNCc1ccc(-c2ccc3ncnc(Nc4ccc(OCc5cccc(F)c5)c(Cl)c4)c3c2)o1")
6.8
>>> observedvalue("CC(C)(C)C[C@@H]1N[C@@H](C(=O)N[C@H]2CC[C@H](O)CC2)[C@H](c2cccc(Cl)c2F)[C@]12C(=O)Nc1cc(Cl)ccc12")
0.1

###

- Test system: KURAMOCHI
- assaySummary: drug sensitivity score (DSS2) on cancer cell count; higher = more sensitive; extreme values may be limits of the assay
- conditionParameters: co-cultured fibroblast: WI38; 72 h
In this section, each of the compounds is paired with its reported drug sensitivity score.
testReadout: drug sensitivity score (DSS)

>>> observedvalue("Cc1ccc(F)c(NC(=O)Nc2ccc(-c3cccc4[nH]nc(N)c34)cc2)c1")
0
>>> observedvalue("O=C(O)c1ccc(O)c2ncccc12")
5.9
>>> observedvalue("Cc1nc2cccc(N)c2c(=O)n1C1CCC(=O)NC1=O (centres undefined)")
0
>>> observedvalue("N#Cc1ccc(C(c2ccc(C#N)cc2)n2cncn2)cc1")
0
>>> observedvalue("O=C(/C=C/c1cccnc1)NCCCCC1CCN(C(=O)c2ccccc2)CC1")
12.6
>>> observedvalue("CCn1c(C(=O)N(C2CC2)C2CC2)cc2c3c(ncn3C)c(Nc3cc(C)n(C)n3)nc21")
1.5
>>> observedvalue("CCc1c(C(=O)C(N)=O)c2c(OCC(=O)O)cccc2n1Cc1ccccc1")
0
>>> observedvalue("NC(=O)c1cccc(-c2cccc(OC(=O)NC3CCCCC3)c2)c1")
0
>>> observedvalue("Cc1cnc(Nc2ccc(OCCN3CCCC3)cc2)nc1Nc1cccc(S(=O)(=O)NC(C)(C)C)c1")
3.7
